I'd appreciate it if you could supply IC50 values for the items below.
# subject_of_test: H1047R PIK3CA enzyme (Homo sapiens, UniProt P42336, H1047R)
# Sequence (P42336 whole entry H1047R): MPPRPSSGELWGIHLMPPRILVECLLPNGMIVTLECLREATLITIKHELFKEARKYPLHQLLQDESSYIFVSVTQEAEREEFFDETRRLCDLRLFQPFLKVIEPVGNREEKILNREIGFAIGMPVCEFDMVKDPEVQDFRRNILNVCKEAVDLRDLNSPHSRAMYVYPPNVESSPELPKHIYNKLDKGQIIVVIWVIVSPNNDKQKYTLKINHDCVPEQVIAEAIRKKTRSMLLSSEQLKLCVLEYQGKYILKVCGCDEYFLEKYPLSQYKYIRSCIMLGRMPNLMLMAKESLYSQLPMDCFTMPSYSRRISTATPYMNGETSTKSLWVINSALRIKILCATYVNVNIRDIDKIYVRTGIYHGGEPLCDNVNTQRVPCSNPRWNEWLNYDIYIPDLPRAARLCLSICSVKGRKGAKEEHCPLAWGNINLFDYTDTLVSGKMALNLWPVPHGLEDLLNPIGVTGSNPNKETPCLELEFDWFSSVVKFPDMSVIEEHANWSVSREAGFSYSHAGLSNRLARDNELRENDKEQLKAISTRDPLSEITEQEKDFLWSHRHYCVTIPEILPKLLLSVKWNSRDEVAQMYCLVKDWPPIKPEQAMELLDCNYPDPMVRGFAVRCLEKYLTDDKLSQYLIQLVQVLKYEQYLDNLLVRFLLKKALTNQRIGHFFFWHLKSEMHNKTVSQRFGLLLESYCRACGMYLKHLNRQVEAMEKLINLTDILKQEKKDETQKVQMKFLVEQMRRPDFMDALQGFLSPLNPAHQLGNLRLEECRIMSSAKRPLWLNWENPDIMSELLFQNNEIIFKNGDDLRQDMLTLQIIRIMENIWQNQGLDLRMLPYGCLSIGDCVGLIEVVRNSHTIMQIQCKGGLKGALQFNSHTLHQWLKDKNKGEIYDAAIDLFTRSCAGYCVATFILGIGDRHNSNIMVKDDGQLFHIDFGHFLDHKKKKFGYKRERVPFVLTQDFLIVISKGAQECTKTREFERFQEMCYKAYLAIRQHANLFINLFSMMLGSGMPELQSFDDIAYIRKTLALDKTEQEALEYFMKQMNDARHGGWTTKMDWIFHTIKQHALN
# Sequence (P27986 whole entry partner): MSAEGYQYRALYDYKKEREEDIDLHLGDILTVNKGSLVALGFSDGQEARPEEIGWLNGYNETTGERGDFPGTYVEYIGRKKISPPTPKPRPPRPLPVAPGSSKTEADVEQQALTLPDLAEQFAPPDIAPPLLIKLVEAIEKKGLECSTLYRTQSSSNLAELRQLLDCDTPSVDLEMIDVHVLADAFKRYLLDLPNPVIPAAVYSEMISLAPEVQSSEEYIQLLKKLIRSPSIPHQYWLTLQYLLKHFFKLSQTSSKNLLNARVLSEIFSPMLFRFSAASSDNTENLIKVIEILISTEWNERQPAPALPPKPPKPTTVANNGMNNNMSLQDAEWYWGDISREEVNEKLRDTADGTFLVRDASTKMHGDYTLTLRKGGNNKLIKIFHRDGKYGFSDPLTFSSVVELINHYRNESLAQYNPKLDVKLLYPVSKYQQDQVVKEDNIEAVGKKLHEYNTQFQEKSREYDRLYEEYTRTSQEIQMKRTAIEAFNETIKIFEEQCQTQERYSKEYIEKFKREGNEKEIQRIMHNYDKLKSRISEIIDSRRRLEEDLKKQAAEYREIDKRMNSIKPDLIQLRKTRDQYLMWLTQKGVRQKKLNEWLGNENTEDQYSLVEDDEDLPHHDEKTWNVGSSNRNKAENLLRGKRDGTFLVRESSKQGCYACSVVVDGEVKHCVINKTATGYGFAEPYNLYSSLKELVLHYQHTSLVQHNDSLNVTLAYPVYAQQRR
# assay_explanation: ADP-Glo Biochemical PIK3CA Kinase Assay
# Protocol: Compounds to be assayed were plated in 16 doses of 1:2 serial dilutions (20 nL volume each well) on a 1536-well plate, and the plate warmed to room temperature. […] To the well was added 1 μL of 200 μM ATP and 20 μM of diC8-PIP2 in Substrate Assay Buffer (50 mM HEPES pH7.4, 50 mM NaCl, 5 mM DTT and 0.03% CHAPS) to start the reaction, and the plate was shaken for 10 seconds, then spun briefly at 1500 rpm, and then incubated for 60 minutes at room temperature. […]

Example entries begin here.
Param item = O=C1NC(c2cc(F)ccc2Cl)c2c(NC(=O)N3CCc4ccc(=O)[nH]c43)cc(Br)cc21 (stereo not shown) [Compound I-1429] ; retrieve measured IC50.
10 to 100 µM

Param item = Cc1ccccc1C1NCCc2cccc(NC(=O)c3cc(F)cc(C(F)(F)F)c3)c21 (stereo not shown) [Compound I-1962] ; retrieve measured IC50.
10 to 100 µM

Param item = O=C(Nc1cccc2c1C(c1ccccc1)NC2=O)c1cc(F)cc(C(F)(F)F)c1 (stereo not shown) [Compound I-1805] ; retrieve measured IC50.
1 to 10 µM

Param item = CNc1cc(NC(=O)c2csc3ccccc23)c2c(c1)C(=O)NC2c1ccccc1C (stereo not shown) [Compound I-39] ; retrieve measured IC50.
≤ 0.1 µM

Param item = N#CCC(=O)Nc1cc(-c2ccc3ncnn3c2)cc2c1C(c1cc(F)ccc1Cl)NC2=O (stereo not shown) [Compound I-2000] ; retrieve measured IC50.
10 to 100 µM

Look up IC50 for the entries below, preserving their order.
1. O=C1N[C@H](c2cc(F)ccc2Cl)c2c(NC(=O)N3C[C@@](O)(C(F)(F)F)c4ccccc43)cc(Cl)cc21 (single isomer, unassigned) [Compound I-2506]
2. CC(C)(O)Cc1cc(NC(=O)c2cc(F)cc(C(F)(F)F)c2)c2c(c1)C(=O)NC2c1cc(F)ccc1Cl (stereo not shown) [Compound I-437]

1 to 10 µM
≤ 0.1 µM

----------
# subject_of_test: H1047R PIK3CA enzyme (Homo sapiens, UniProt P42336, H1047R)
# assay_explanation: ADP-Glo Biochemical PIK3CA Kinase Assay
# Method: Compounds to be assayed were plated in 16 doses of 1:2 serial dilutions (20 nL volume each well) on a 1536-well plate, and the plate warmed to room temperature. […] To the well was added 1 μL of 200 μM ATP and 20 μM of diC8-PIP2 in Substrate Assay Buffer (50 mM HEPES pH7.4, 50 mM NaCl, 5 mM DTT and 0.03% CHAPS) to start the reaction, and the plate was shaken for 10 seconds, then spun briefly at 1500 rpm, and then incubated for 60 minutes at room temperature. […]
parameter: IC50

Example entries begin here.
Param item = O=C(Nc1cccc2c1C(c1cc(F)ccc1Cl)NC2=O)c1ccc(O)c(C(F)(F)F)c1 (stereo not shown) ; retrieve measured IC50.
10 to 100 µM

Param item = CN1C(=O)CC[C@@H]1COc1cc(NC(=O)c2cc(F)cc(C(F)(F)F)c2)c2c(c1)C(=O)N[C@H]2c1cc(F)ccc1Cl (single isomer, unassigned) ; retrieve measured IC50.
≤ 0.1 µM

Param item = O=C(Nc1cc(-c2cccc3c2CCNC3=O)cc2c1C(c1cc(F)ccc1Cl)NC2=O)c1cc(F)cc(C(F)(F)F)c1 (stereo not shown) ; retrieve measured IC50.
≤ 0.1 µM

Look up IC50 for the entries below, preserving their order.
1. O=C1NC(c2cc(F)ccc2Cl)c2c(NC(=O)N3CC(O)(C(F)(F)F)c4ccccc43)cc(Cl)cc21 (mixture of isomers)
2. Cc1ccccc1C1NC(=O)c2c(C(=O)NCC(N)=O)ccc(NC(=O)c3nsc4ccccc34)c21 (stereo not shown)
3. O=C1NC(c2cc(F)ccc2Cl)c2c(Nc3ccc4ccccc4c3)cc(Br)cc21 (stereo not shown)

1. ≤ 0.1 µM
2. ≤ 0.1 µM
3. 1 to 10 µM

Look up IC50 for the entries below, preserving their order.
1. CC(C)(O)c1cnc2ccc(-c3cc(NC(=O)c4cc(F)cc(C(F)(F)F)c4)c4c(c3)C(=O)N[C@@H]4c3cc(F)ccc3Cl)cc2c1
2. O=C1NC(c2cc(F)ccc2Cl)c2c(NC(=O)C3(c4cc(F)ccc4F)CCCC3)cc(Br)cc21 (stereo not shown)
3. Cc1ccccc1C1NC(=O)c2cc(C(F)F)cc(NC(=O)c3cc(F)cc(C(F)(F)F)c3)c21 (stereo not shown)
4. O=C1NC(c2cc(F)ccc2Cl)c2c(Nc3ccn(C4CC4)n3)cc(-c3ccc4ncnn4c3)cc21 (stereo not shown)
5. O=C(Nc1cc(N2CC(O)C2)nc2c1C(c1cc(F)ccc1Cl)NC2=O)c1cc(F)cc(C(F)(F)F)c1 (stereo not shown)

1: 10 to 100 µM; 2: 10 to 100 µM; 3: 0.1 to 0.5 µM; 4: 10 to 100 µM; 5: ≤ 0.1 µM

Look up IC50 for the entries below, preserving their order.
1. NCC(O)c1cc(NC(=O)c2cc(F)cc(C(F)(F)F)c2)c2c(c1)C(=O)NC2c1cc(F)ccc1Cl (stereo not shown)
2. O=C1NC(c2cc(F)ccc2Cl)c2c(NC(=O)[C@H](O)c3cc(F)cc(F)c3)cc(Br)cc21 (single isomer, unassigned)

0.1 to 0.5 µM
10 to 100 µM

----------
# assay_explanation: cells
# experimental_setup: Homo sapiens, MCF-10A, read-out: MCF10A IC50
I'd appreciate it if you could supply IC50 values for the items below.

Example entries begin here.
Param item = O=C1NC(c2cc(F)ccc2Cl)c2c(NC(=O)N3CCc4ccccc43)cccc21 (stereo not drawn) ; retrieve measured IC50.
1 to 5 µM

Param item = O=C(Nc1cc(-n2cc(F)cn2)cc2c1C(c1cc(F)ccc1Cl)NC2=O)c1cc(F)cc(C(F)(F)F)c1 (stereo not drawn) ; retrieve measured IC50.
< 1 µM

Further cases:
Param item = CNc1cc(NC(=O)N2C[C@@](O)(C(F)(F)F)c3cc(F)ccc32)c2c(c1)C(=O)N[C@@H]2c1cc(F)ccc1Cl (single isomer, unassigned) ; retrieve measured IC50.
< 1 µM

----------
# assay_explanation: cells
# experimental_setup: Homo sapiens, MCF-10A, read-out: MCF10A IC50
I'd appreciate it if you could supply IC50 values for the items below.

Look up IC50 for the entries below, preserving their order.
1. CC(C)(O)c1cc(NC(=O)c2cc(F)cc(C(F)(F)F)c2)c2c(c1)C(=O)N[C@H]2c1cc(F)ccc1Cl
2. Cn1ccc(-c2cc(NC(=O)c3cc(F)cc(C(F)(F)F)c3)c3c(c2)C(=O)N[C@@H]3c2cc(F)ccc2Cl)cc1=O (stereo in doubt)
3. C[C@@H](C#N)Cn1cc(-c2cc(NC(=O)N3C[C@@H](O)c4cc(F)ccc43)c3c(c2)C(=O)N[C@H]3c2cc(F)ccc2Cl)cn1 (single isomer, unassigned)

1: < 1 µM; 2: < 1 µM; 3: 5 to 10 µM

----------
I'd appreciate it if you could supply IC50 values for the items below.
# subject_of_test: H1047R PIK3CA enzyme (Homo sapiens, UniProt P42336, H1047R)
# assay_explanation: ADP-Glo Biochemical PIK3CA Kinase Assay

Example entries begin here.
Param item = O=C(Nc1cc(-c2ccc3ncnn3c2)cc2c1[C@H](c1cc(F)ccc1C(F)F)NC2=O)c1cc(F)cc(C(F)(F)F)c1 (stereo in doubt) [Compound I-1056] ; retrieve measured IC50.
≤ 100 nM

Param item = Cc1ccccc1-n1[nH]c(=O)c2cccc(NC(=O)c3cc(F)cc(C(F)(F)F)c3)c21 [Compound I-178] ; retrieve measured IC50.
500 to 1000 nM

Param item = O=C1NC(c2cc(F)ccc2Cl)c2c(NC(=O)N3CCc4cc(C(F)(F)F)ccc43)cccc21 (stereo not drawn) [Compound I-2436] ; retrieve measured IC50.
10000 to 100000 nM

Param item = CNc1cc(NC(=O)N2C[C@](O)(C(F)(F)F)c3cc(F)ccc32)c2c(c1)C(=O)N[C@@H]2c1cc(F)ccc1Cl (single isomer, unassigned) [Compound I-2641] ; retrieve measured IC50.
500 to 1000 nM

Param item = O=C1N[C@@H](c2cc(F)ccc2Cl)c2c(NC(=O)c3csc4ccccc34)cc(Br)cc21 [Compound I-734] ; retrieve measured IC50.
≤ 100 nM

Okay, next one:
Param item = O=C(Nc1cc(CCO)cc2c1C(c1cc(F)ccc1Cl)NC2=O)c1cc(F)cc(C(F)(F)F)c1 (stereo not drawn) [Compound I-579] ; retrieve measured IC50.
≤ 100 nM

----------
# subject_of_test: H1047R PIK3CA enzyme (Homo sapiens, UniProt P42336, H1047R)
# assay_explanation: ADP-Glo Biochemical PIK3CA Kinase Assay
pIC50: −log10 of the molar value.
I'd appreciate it if you could supply pIC50 values for the items below.

Param item = C[C@@H](c1cc(NC(=O)c2cc(F)cc(C(F)(F)F)c2)c2c(c1)C(=O)N[C@@H]2c1cc(F)ccc1Cl)S(C)(=O)=O (single isomer, unassigned) [Compound I-1640] ; retrieve measured pIC50.
5.00 to 6.00

Look up pIC50 for the entries below, preserving their order.
1. O=C(Nc1cc(N2CC3(CCN3)C2)cc2c1C(c1cc(F)ccc1Cl)NC2=O)c1cc(F)cc(C(F)(F)F)c1 (stereo not drawn) [Compound I-1388]
2. N#Cc1cnc2c(F)cc(-c3cc(NC(=O)c4cc(F)cc(C(F)(F)F)c4)c4c(c3)C(=O)N[C@H]4c3cc(F)ccc3Cl)cn12 [Compound I-1856]

6.30 to 7.00
≥ 7.00
